# Test system: K4 kissing-loop RNA reporter;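 further: bound reporter read as fluorescence of individual clusters on recovered sequencing chips by microscopy, with normalized cluster intensities fitted with a binding model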
# EXPERIMENT SUMMARY: apparent KD of K4 kissing-loop reporter; higher = weaker reporter binding
# TEST PARAMETERS: Eterna round: R107; input ligand: arginine 13.2 mM
ENDPOINT NAME: apparent KD of K4 kissing-loop reporter (nM)
Provide only the numeric value, understood in nM.

Consider the worked cases shown below.
ENTRY SEQUENCE	ENDPOINT NAME	OBSERVED MEASUREMENT
UCCAAGGACGAACCGGUAUGAUCACCGGAUACCAGAGGCGAAAGCCUCCCUUGGCAGCCGAGUGUAGUGAUGUUACACUGGUUCU	apparent KD of K4 kissing-loop reporter	82.8
GCCGUAGAUCGAAGGAGCGUGUCCAAACCUCAUUCAUGUACACACGAGUGAUGUUCGUGUACACAGGUAGGUCGCGAUCUACGGC [#04 K4 Arginine B Exclusion]	apparent KD of K4 kissing-loop reporter	281

Task: Specify apparent KD of K4 kissing-loop reporter for GGGAGUAGUGCGGCCGCCACUGAGAAAGAAGAAGAAUAUAGUGAUGUUAUAUAGGAAUUAAAGAACAGGACCGGGCAUUAGAUUU [SSTRyptB.O] and stop.
Result: 208

====

# System: MS2 coat protein
# EXPERIMENT SUMMARY: apparent KD of MS2 coat protein; higher = weaker reporter binding
# TEST PARAMETERS: Eterna round: R107; input ligand: theophylline 20 uM
# apparent KD of MS2 coat protein per entry
Output spec: scalar in nM, unitless text.

ENTRY SEQUENCE	apparent KD of MS2 coat protein (nM)
AACAUGAGGAUCACCCAUGUUAAGUAUGAAGGAGCGUCGGAAACGACAGGUAGGUCGCAUACUUGGCCUUGUACUUCGUGUGUCU [#02 Exclusion - Arginine A]	17.9
AUUUUUCUAUCAGAUACCAGACAAUUUUAGACAUGAGGAUCACCCAUGUAUAGGGUGUUCGUCCCUUGGCAGCUGUUAAGUUUAA [JR_SSTheophyB_Sub004]	152

Task: Quickly give me recorded apparent KD of MS2 coat protein for GGCUAGGCUAGCGAUACCAGCAACCAACAUGAUCUGAGGAUCACCCAGGUAGUUGGACGUUGCCCUUGGCAGCGCUAGCCUAGCC [SSThB NP+V+V2 #12 Diff Apt, Same Structure]
Result: 16

Task: Answer with the recorded apparent KD of MS2 coat protein for the sequence listed here: ACAUGAGGAUCACCCAUGUUCCUCGCCGAUACCAGUGAAGAAUUACGCCCUUGGCAGCGGAAAGAGUGUUUUGGAGAUGAGGUAC [6.aA]
Result: 112

Task: Entry AAAAUAAACUCGGCCGCCACUCAACGGACCCUUUGGACAUGAGGAUCACCCAUGUAUUUUGGAAAGAGGACCGGGAGAAAUAAAA [Exclusion - Trytophan B] needs its apparent KD of MS2 coat protein filled in; supply it.
Result: 17.8

====

Listing: apparent KD of MS2 coat protein of selected sequences
# Test system: MS2 coat protein
# EXPERIMENT SUMMARY: apparent KD of MS2 coat protein, switch OFF state (with FMN for OFF switches, without FMN for ON switches); designed switch direction (-1 OFF switch, 1 ON switch): 1; higher = weaker reporter binding
# TEST PARAMETERS: FMN input: 0 or 200 uM; Eterna round: R93 (includes R88 designs)
Quick note: unit goes after the number.

Task: Find the measured apparent KD of MS2 coat protein of AACCAACAUGAGGAUCACCCAUGUCAACCCAAGCGAGGAUAUCGGAGAAUAACAAUGGGACGAGAAGGCGCGACCU [ss1-2] and report it.
Result: 36.9 nM

Task: In one line, give reported apparent KD of MS2 coat protein of the entry AAAAAACAUGAGGAUCACCCAUGUAAAAAUAUGGGAGGAUAUGCGAAAAGAAACAAAGAAGCAGAAGGCCUAAAAA [75%, Ex5 sub 1, 8] .
Result: 185 nM

Task: Could you please provide reported apparent KD of MS2 coat protein for AAGAAACAUGAGGAUCACCCAUGUAAGAUAAACACAGGAUAUGCGAAUAAAAUAAAUAAAGCAGAAGGGUGAAGAA [Mat - Same State 1 - Tesla mod - D150] ? Thanks!
Result: 34.3 nM

Task: Supply recorded apparent KD of MS2 coat protein for UCCUUACAUGAGGAUCACCCAUGUCGCAGGAAUCAAGGAUAUGGGACCGCAAUGCGGAAACCAGAAGGUGACAAAA [Zaesor] here.
Result: 322 nM

====

# System: MS2 coat protein
# EXPERIMENT SUMMARY: apparent KD of MS2 coat protein; higher = weaker reporter binding
# TEST PARAMETERS: Eterna round: R107; input ligand: none
Quick reference for apparent KD of MS2 coat protein among some sequences
# unit: nM | format: bare number

Example cases with answers are listed next.
ENTRY SEQUENCE	apparent KD of MS2 coat protein (nM)
GUAUCUAUGUGAAAUAGAUAUGUAACUGAAGGAGCGUCAUUAAGGACAGGUAGGUCGCGGAGCACAUGAGGAUCACCCAUGUCGG [#09 Same State - Arginine A]	42.1
GCACCAGGUACGGAUACCAGCUGCCCGAGAUACAUGAGGAUCACCCAUGUGACCUGAUUUAGCCCUUGGCAGCUGUACCUGGUGC [SSThB NP+V+V2 #1]	333
GGCCGAAACGGCCAAGGUAUCAUGACCGAUACCAGCGAAGAAGAACGCCCUUGGCAGCGGACAUGAGGAUCACCCAUGUAAAGAA	16

Task: Specify measured apparent KD of MS2 coat protein for UUAUUUAACGGAAGGAGCGCGGAUAAAAUAGUGGGUAAACAUGAGGAUCACCCAUGUAAACCGCAGGUAGGUCGCCGAUAUUUAU [AstrosEXyARgB#5] .
Result: 43.1

Task: Identify apparent KD of MS2 coat protein associated with the sequence AAACAUGAGGAUCACCCAUGUCCUCGUGAUCGAGGACCGGUACGGCCGCCACUCGGUCCUCGCGAGGUGGAGUCAAAGACUCCAA [Omei Trp A SS A v7]
Result: 182

Task: Supply measured apparent KD of MS2 coat protein of GGAUAGGACAGAAGGAGCGACAUGCGACGAAAGUCGAAAAGAUCACAUGAGGAUCACCCAUGUCAGGUAGGUCGCUGUCCUAUCG [ArgXB 10 #Zipper #MS2Left #StaticStem #Blueprint] in your reply.
Result: 127

====

# Test system: MS2 coat protein
# EXPERIMENT SUMMARY: apparent KD of MS2 coat protein; higher = weaker reporter binding
# TEST PARAMETERS: Eterna round: R107; input ligand: none
Could you label it rule met if measured apparent KD of MS2 coat protein is 70 nM or higher, and rule not met otherwise?

ENTRY SEQUENCE	CATEGORY
ACAUGAGGAUCACCCAUGUAAUCCUCUGAAGGAGCGAGAAAUAACUCAGGUAGGUCGCAGUUCAAAACAUGAGGAUCACCCAUGU [Exclusion Arginine A GF 9]	rule not met

Task: Textbook exercise: given the entry CCAUAGGGUAAAUACGUAAUCAUAUCUGAAGGAGCGUGGAUAUACACAGGUAGGUCGCAGAAUCACAUGAGGAUCACCCAUGUCU [Same State Arginine A GF12] , state whether its apparent KD of MS2 coat protein is greater than or equal to 70 nM.
Result: rule not met

Task: Would you say AUAACAUGAGGAUCACCCAUGUUGAGUGAUACCAGACCAUGUAGUGUCCCUUGGCAGCACAGGUAAAGUUGUAAAUAACGAUAGA [#13 SameState-TheophyllineA] shows apparent KD of MS2 coat protein at minimum 70 nM?
Result: rule not met

Task: Kindly determine if apparent KD of MS2 coat protein recorded for GGGAUAUCCCGAAGGAGCGCGAGAUGCUGUGCUGCAUUCCUCACAUGAGGAUCACCCAUGUCGCAGGUAGGUCGCGGGAUAUCCC [#16 Exclusion - Arginine B] is above or exactly 70 nM.
Result: rule met

Task: Given the entry ACCUGUACGAAAAGUGCAGGACAGGAAAAUCGAGGACCGGUACGGCCGCCACUCGUAUAAACAAGUGGAUCACCCUUGUAACCUG [TrypAS 1 #AlternativeMS2 #Zipper] , answer whether its apparent KD of MS2 coat protein meets or surpasses 70 nM.
Result: rule met

Task: hey, is apparent KD of MS2 coat protein for this one >= 70 nM? UGUAACAUGAGGAUCACCCAUGUGAGUGAUACCAGACUAGUGUUAGUCCCUUGGCAGCACGCUGGACGAAUGUGUAGUCUAUGCG [Same State - Theophylline A (Freestyle 19)]
Result: rule met

Task: Please tell me: is the sequence AGUAUCAGUGGAAGGAGCGUCGCGAAUGUCACAUGAGGAUCACCCAUGUCGUCUUGAGCGCGACAGGUAGGUCGCCACGGUAGGC [SS-ArgB4] at or over 70 nM in terms of apparent KD of MS2 coat protein?
Result: rule not met

Task: Hi team, for UUAAUCUAUGAAGAAAACUUUAUAGCAGAAGGAGCGUGAUAAAACACAGGUAGGUCGCUGAAGGGAACAUGAGGAUCACCCAUGU [AstrosSSArgA#19] , is the recorded apparent KD of MS2 coat protein at or above 70 nM?
Result: rule not met

Task: Hi, just wondering whether ACGGAUCGGAAACGAUCCGCGGCAAGGGUACGAGGACCGGUACGGCCGCCACUCGGCUAACAUGAGGAUCACCCAUGUCCGAAGA [ETA NP+V+V2 #8] shows apparent KD of MS2 coat protein of 70 nM or higher.
Result: rule not met

These data points were gathered from the supplement of paper PMC9170038.
